Test: Metabolic stability in mouse liver microsomes
Assay type: in vitro ADME
RECORDED_METRIC: half-life (h)

[[record]]
structure_as_smiles = "O=C(CN1C(=O)CSc2cc(F)ccc21)Nc1nnc(-c2ccccn2)[nH]1"
recorded_metric = "half-life"
readout_number = 2.43

